# TEST_DETAILS: Single toxicity of chlorpyrifos and butachlor to zebrafish embryos
# Assay type: in vivo
# RECORDED_CONDITIONS: in vivo, other: immersion in test solution (waterborne exposure), exposure time 72 h, read-out: LC50 (95% CI)
# reported LC50 at 72 h; entries follow
REPORTED_ENDPOINT: LC50 at 72 h (µg/mL)

COMPOUND | RECORDED_NUMBER
CCCCOCN(C(=O)CCl)c1c(CC)cccc1CC [Butachlor, butachlor] | 4.42
CCOP(=S)(OCC)Oc1nc(Cl)c(Cl)cc1Cl [Chlorpyrifos, chlorpyrifos] | 63.4

====

# TEST_DETAILS: Combined toxicity of chlorpyrifos and butachlor to Japanese medaka larvae
# RECORDED_CONDITIONS: in vivo, other: immersion in test solution (waterborne exposure), chlorpyrifos:butachlor ratio 1:4, 48 h, read-out: LC50 (95% CI) of the component in the mixture
Reported LC50 at 48 h is given for each of the following molecules.

MOLECULE | RESULT_UNIT | LC50 at 48 h
CCOP(=S)(OCC)Oc1nc(Cl)c(Cl)cc1Cl [Chlorpyrifos, chlorpyrifos] | µg/mL | 0.33
CCCCOCN(C(=O)CCl)c1c(CC)cccc1CC [Butachlor, butachlor] | µg/mL | 1.3
